# Organism: Rattus norvegicus
# protocol.details: Inhibition of rat recombinant geranylgeranyltransferase type I expressed in Escherichia coli assessed as residual enzyme activity for geranylgeranylation of RhoA at 50 uM incubated for 30 mins in presence of [3H]GGPP by scintillation counting assay relative to control
value.kind: Activity (%)
Use % as the unit, but write only the number.

Example compounds with recorded Activity:
- line.notation: "Cc1ccc([C@@H]2C[C@@H](SCc3ccc(Cl)cc3)[C@H](C(=O)O)CN2S(=O)(=O)c2ccccc2C)cc1"
  Activity, %: 10.5
- line.notation: "CCCCCC[C@@H]1[C@@H](Sc2ccc(C)cc2)[C@@H](C(=O)O)[C@H](c2ccc(Cl)cc2)N1S(=O)(=O)c1ccccc1"
  Activity, %: 7.5

Next up:
Query: Give recorded Activity. `COc1ccc([C@@H]2C[C@@H](Sc3ccc(Cl)cc3)[C@H](C(=O)O)CN2S(=O)(=O)c2ccc(Cl)cc2)cc1`
Result: 8.6
